Cited source for all entries: ChEMBL document CHEMBL3608279

# Test system: Intestine
# testMethodNotes: Prodrug conversion in rat intestine S9 fractions assessed as formation of 1-ethyl-3-[6-fluoro-5-[2-(1-hydroxy-1-methyl-ethyl)pyrimidin-5-yl]-7-[(2R)-tetrahydrofuran-2-yl]-1H-benzimidazol-2-yl]urea by Michaelis-Menten plot analysis
# Type: ADME, tissue-based
measuredMetric: Km (µM)
A number alone suffices; assume µM.

q: Can you share its Km? I mean this compound: `CCNC(=O)Nc1nc2cc(-c3cnc(C(C)(C)OP(=O)(O)O)nc3)c(F)c([C@H]3CCCO3)c2[nH]1`
a: 736

* * *

# testMethodNotes: Aqueous solubility of the compound at pH 7
# Type: physicochemical
# particulars: buffer
measuredMetric: solubility (mg/mL)
A number alone suffices; assume mg/mL.

q: Can you share its solubility? I mean this molecule: `CCNC(=O)Nc1nc2cc(-c3cnc(C(C)(C)OP(=O)(O)O)nc3)c(F)c([C@H]3CCCO3)c2[nH]1`
a: 75

* * *

# testMethodNotes: Prodrug conversion in dog intestine S9 fractions assessed as formation of 1-ethyl-3-[6-fluoro-5-[2-(1-hydroxy-1-methyl-ethyl)pyrimidin-5-yl]-7-[(2R)-tetrahydrofuran-2-yl]-1H-benzimidazol-2-yl]urea by Michaelis-Menten plot analysis
# Type: ADME, tissue-based, Canis lupus familiaris
measuredMetric: Km (µM)
A number alone suffices; assume µM.

q: Can you share its Km? I mean this molecule: `CCNC(=O)Nc1nc2cc(-c3cnc(C(C)(C)OP(=O)(O)O)nc3)c(F)c([C@H]3CCCO3)c2[nH]1`
a: 998

* * *

# testMethodNotes: Apparent permeability across basolateral to apical side in MDCK cells
# Assay type: ADME, cell-based, Canis lupus familiaris
# particulars: dog
measuredMetric: Papp B→A (×10⁻⁶ cm/s)
A number alone suffices; assume ×10⁻⁶ cm/s.

q: Can you share its Papp B→A? I mean this compound: `CCNC(=O)Nc1nc2cc(-c3cnc(C(C)(C)O)nc3)c(F)c([C@H]3CCCO3)c2[nH]1`
a: 16.3

* * *

# testMethodNotes: Apparent permeability across apical to basolateral side in MDCK cells
# Assay type: ADME, cell-based, Canis lupus familiaris
# particulars: dog
measuredMetric: Papp A→B (×10⁻⁶ cm/s)
A number alone suffices; assume ×10⁻⁶ cm/s.

q: Can you share its Papp A→B? I mean this compound: `CCNC(=O)Nc1nc2cc(-c3cnc(C(C)(C)O)nc3)c(F)c([C@H]3CCCO3)c2[nH]1`
a: 9.5

* * *

# testMethodNotes: Prodrug conversion in monkey intestine S9 fractions assessed as formation of 1-ethyl-3-[6-fluoro-5-[2-(1-hydroxy-1-methyl-ethyl)pyrimidin-5-yl]-7-[(2R)-tetrahydrofuran-2-yl]-1H-benzimidazol-2-yl]urea by Michaelis-Menten plot analysis
# Assay type: ADME, tissue-based, Macaca mulatta
# particulars: rhesus monkey
measuredMetric: Km (mM)
A number alone suffices; assume mM.

q: Can you share its Km? I mean this compound: `CCNC(=O)Nc1nc2cc(-c3cnc(C(C)(C)OP(=O)(O)O)nc3)c(F)c([C@H]3CCCO3)c2[nH]1`
a: 5.18
